// reported Mean release rate per item
Assay comment: Rate of release of pheromone components from lures in laboratory wind tunnel
Assay type: physicochemical
Run conditions: Interval 26 days, Septa; 27° C., 8 km/hr wind speed
Experimental: Measurements were made of the rates of release of the components from lures maintained in a laboratory wind tunnel at 27° C. and 8 km/hr wind speed. Volatiles were collected onto Porapak Q under same conditions for approximately 2 hours and the collections were analysed by Gas Chromatography with a flame ionisation detector using a polar column. Release rates (ng/hr) and their ratios to the major component are shown.

| Compound | Mean release rate [ng/h] |
| --- | --- |
| CCCCCCCCCC(C)OC(C)=O (racemic) [2-undecyl acetate, 2-acetoxyundecane] | 8.9 |
| CCCCCCCCCC(C)O (racemic) | 7.4 |
| CCCCCCC(=O)CCC(C)OC(C)=O (racemic) [racemic 2-acetoxy-5-undecanone, 2-acetoxy-5-undecanone] | 29.5 |
| CCCCCCCCCC(C)=O | 9.9 |
